# ASSAY_REMARKS: HILIC, Waters ACQUITY UPLC BEH Amide, 100 × 2.1 mm, 1.7 µm; A: water + 0.125% formic acid + 10 mM ammonium formate; B: 5% water + 95% acetonitrile + 0.125% formic acid + 10 mM ammonium formate; gradient (min/%B) 0/100 2/100 7.7/70 9.5/40 10.25/30 12.75/100 17/100
# SETUP_CONDITIONS: stereoisomer not certain
Classification scheme (LC retention time): bottom range (below 2 min), center range (2 min to below 7 min), top range (7 min or more)

                                    compound   label_class
 0  CCCCc1oc2ccccc2c1C(=O)c1cc(I)c(OCCN(CC)CC)c(I)c1 [Amiodarone]  bottom range
 1             CC(C)C(=O)O [Isobutyric acid]  bottom range
 2  C[S+](CCC(N)C(=O)[O-])CC1OC(n2cnc3c(N)ncnc32)C(O)C1O (stereo not given) [S-Adenosyl-methionine]     top range
 3  OCCN1CCN(CCCN2c3ccccc3Sc3ccc(C(F)(F)F)cc32)CC1 [Fluphenazine]  center range
 4  OCC1OC(OC2(CO)OC(CO)C(O)C2O)C(O)C(O)C1O (stereo not given) [Sucrose]     top range
 5  CC(C)C(NC(=O)CN)C(=O)O (stereo not given) [Gly-val]     top range
 6      N=c1ccc2nc3ccc(N)cc3sc-2c1 [Thionin]  center range
 7  COc1cc(CNC(=O)CCCCC=CC(C)C)ccc1O [Capsaicin]  bottom range
 8  CN1C2CCC1C(C(=O)O)C(OC(=O)c1ccccc1)C2 (stereo not given) [Benzoylecgonine]  center range
 9  COc1cccc(C2(O)CCCCC2CN(C)C)c1 (stereo not given) [Tramadol]  center range
10  CCCN1CC(CSC)CC2c3cccc4[nH]cc(c34)CC21 (stereo not given) [Pergolide]  center range
11  OCC1OC(OCC2OC(OC3(CO)OC(CO)C(O)C3O)C(O)C(O)C2O)C(O)C(O)C1O (stereo not given) [Raffinose]     top range
12  CC(N)C(=O)NC(C(=O)O)C(C)C (stereo not given) [Ala-Val]     top range
13  CCCCCCCCCCCCCCCCCC(=O)OC(CC(=O)O)C[N+](C)(C)C [Stearoyl-L-carnitine]  center range
14  O=c1cc[nH]c2ccccc12 [4-Hydroxyquinoline]  bottom range
15  CNC(Cc1ccccc1)C(=O)O (stereo not given) [N-Methylphenylalanine]  center range
16                       CCCCCCCCO [Octanol]     top range
17  COC(=O)C1C(O)CC2CCC1N2C (stereo not given) [Ecgonine methylester]  center range
18  COCC1OC(n2cc(C)c(=O)[nH]c2=O)CC1O (stereo not given) [5'-O-Methylthymidine]  bottom range
19  CC(CO)CCNc1ncnc2nc[nH]c12 (stereo not given) [Dihydrozeatin]  center range
20      NCC(=O)NCC(=O)NCC(=O)O [Gly-Gly-Gly]     top range
21  CC1CC2C3CCC4=CC(=O)C=CC4(C)C3(F)C(O)CC2(C)C1C(=O)CO (stereo not given) [Desoximetasone]  bottom range
22  Cc1ncc([N+](=O)[O-])n1CC(C)O (stereo not given) [Secnidazole]  bottom range
23  CCc1nn(CCCN2CCN(c3cccc(Cl)c3)CC2)c(=O)n1CCOc1ccccc1 [Nefazodone]  bottom range
24       CC(=O)Nc1ccc(CC(=O)O)cc1 [Actrarit]  bottom range
25         NCCOP(=O)(O)O [O-Phosphocolamine]     top range
26  CN1CCN(C2=Nc3ccccc3Oc3ccc(Cl)cc32)CC1 [Loxapine]  center range
27  NC(=O)NCCCC(N)C(=O)O (stereo not given) [Citrulline]     top range
28  CC(C)(CO)C(O)C(=O)NCCC(=O)O (stereo not given) [Pantothenic acid]  center range
